Documented TGI across a set of compounds
Test system: CCRF-CEM leukemia
Test: NCI tumour cell line growth inhibition, 48 h
property measured: TGI

* NCCN.O=C([O-])CN1CCOCC1.[OH-].[Pt+4] | > 100 µM
* CCOP(=O)(OCC)OC1c2[nH]cc(C(=O)OCc3ccccc3)c2-c2cc(C(=O)OC)[nH]c2C1OC (configuration not stated) | > 100 µM
* Cc1[nH]c(=O)nc(Nc2ccc(Cl)cc2)c1C(=O)N1CCN(CCO)CC1 | > 100 µM
* Cc1ccc(C(=O)NC2CCC2)cc1-c1ccc(C(=O)NCC2CC2)cc1 | > 25 µM
* c1ccc(CSC2(SCc3ccccc3)CCCCC2)cc1 | > 10 µM
* O=C1c2ccccc2N2Oc3ccccc3C12c1ccccc1 (configuration not stated) | > 100 µM
* O=C(N/N=C(/COc1ccccc1)N=Cc1cccnc1)c1ccncc1 | > 100 µM
* CC(=O)O[C@H]1CCC2[C@@H]3CCC4c5nonc5CC[C@]4(C)C3CC[C@@]21C (some centres not stated) | > 100 µM
* CC1(C)N=C(C2CCCN2C(=O)OCc2ccccc2)OC1=O (configuration not stated) | > 100 µM
* CNc1nc(C(N)=O)c(N)s1 | > 100 µM
* O=S(=O)(c1cccc2c(I)cccc12)N1CCCNCC1 | 32.2 µM
* O=C(CC(Cl)=C(Cl)Cl)c1ccccc1 | 30.4 µM
* COc1ccc(COC2CC(OC)OC(C)C2OC(=O)c2ccccc2)cc1 (configuration not stated) | > 100 µM
* COc1ccc(NC(=S)c2ccoc2C)cc1CC(=O)OC(C)C | > 100 µM
* CN(C)C(=O)c1ccc([N+](=O)[O-])cc1 | > 100 µM
* Cc1ccc(Nc2nc3c(=O)n(C)c(=O)n(C)c3nc2Nc2ccc(C)cc2)cc1 | > 100 µM
* COc1cccc(/C=C2\S/C(=N/Nc3nc(-c4ccc([N+](=O)[O-])cc4)cs3)NC2=O)c1O | 63.3 µM
* CCSc1nc(SCC)c2c(-c3ccc(OC)c(OC)c3)c(C#N)c(SCC)nc2n1 | > 100 µM
* CCOc1ccc(N/C(=C(/C(Cl)=C(/Cl)NC(C)(C)C)[N+](=O)[O-])n2nnc3ccccc32)cc1 | > 100 µM
* COc1ccc(C2=C(c3ccc(OC)c(OC)c3)C(=O)N3CCCC3C2)cc1 (configuration not stated) | > 100 µM
* O=C(OCCNC(=O)N1CC1)OCCNC(=O)N1CC1 | > 10 µM
* N#Cc1c(-c2ccccc2)c(CN2CCCCC2)c(=O)n2c1[nH]c1ccccc12 | > 100 µM

Reference source: PubChem BioAssay (NCI)
